Test system: SK-ES-1 (Ewing's Sarcoma);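 also: after 72 h of two-drug dosing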
experiment summary: Bliss excess, mean over the matrix (fraction); higher = more synergy
Tag: label 1 if measured Bliss excess is not below 0.02, label 0 if it is.

Does the compound COc1nnc2ccc(N3CCC(c4ccc(OCCN5CCN(C)C(=O)[C@H]5C)cc4)CC3)nn12 [AZD5153] + Cc1c2c(nn1C)CSCc1cc(n(C)n1)CSc1cc(c3ccccc3c1)OCCCc1c(C(=O)O)n(C)c3c-2c(Cl)ccc13 [AZD5991] (first compound max 1 µM, 7x7, partner max 1 µM) have recorded Bliss excess that is 0.02 or more?
label 0

What do you have for Cc1c2c(nn1C)CSCc1cc(n(C)n1)CSc1cc(c3ccccc3c1)OCCCc1c(C(=O)O)n(C)c3c-2c(Cl)ccc13 [AZD5991] + C[C@@H]1COCCN1C2=NC(=NC(=C2)C3(CC3)[S@](=N)(=O)C)C4=C5C=CNC5=NC=C4 [AZD6738] (first compound max 1 µM, 7x7, partner max 10 µM) ?
label 0

Try this compound too: Cc1c2c(nn1C)CSCc1cc(n(C)n1)CSc1cc(c3ccccc3c1)OCCCc1c(C(=O)O)n(C)c3c-2c(Cl)ccc13 [AZD5991] + CCN(CCO)CCCOc1ccc2c(Nc3cc(CC(=O)Nc4cccc(F)c4)[nH]n3)ncnc2c1 [AZD2811] (first compound max 1 µM, 7x7, partner max 1 µM)
label 0

Can you check Cc1c2c(nn1C)CSCc1cc(n(C)n1)CSc1cc(c3ccccc3c1)OCCCc1c(C(=O)O)n(C)c3c-2c(Cl)ccc13 [AZD5991] + C[C@@H](Nc1cc(F)cc(F)c1)c1cc(C(=O)N(C)C)cc2c(=O)cc(N3CCOCC3)oc12 [AZD8186] (first compound max 1 µM, 7x7, partner max 3 µM) next?
label 1

Also Cc1cc2ncnn2cc1Nc1ncc2c(n1)n(C1CCOCC1)c(=O)n2C [AZD7648] + C=CCn1c(=O)c2cnc(Nc3ccc(N4CCN(C)CC4)cc3)nc2n1-c1cccc(C(C)(C)O)n1 [AZD1775] (first compound max 10 µM, partner max 1 µM) ?
label 1

// repeat for CN(CCO)CC[C@H](CSc1ccccc1)Nc1ccc(S(=O)(=O)NC(=O)c2ccc(N3CCC([C@@H](O)c4ccccc4-c4ccc(Cl)cc4)CC3)cc2)cc1S(=O)(=O)C(F)(F)F [AZD4320] + C1CN(CCC1(C(=O)N[C@@H](CCO)C2=CC=C(C=C2)Cl)N)C3=NC=NC4=C3C=CN4 [Capivasertib] (first compound max 1 µM, 7x7, partner max 3 µM) and report
label 1

Also COc1cc2c(cc1OCCCCCOc1cc3c(cc1OC)C(=O)N1C=C(C)C[C@H]1C=N3)N=C[C@@H]1CC(C)=CN1C2=O [SG3199] + O=C(c1cc(Cc2n[nH]c(=O)c3ccccc23)ccc1F)N1CCN(C(=O)C2CC2)CC1 [Olaparib] (first compound max 0.001 µM, 7x7, partner max 10 µM) , if possible.
label 0

###

System: RC-K8 (B-Cell Non-Hodgkin's Lymphoma)
experiment summary: combination Emax (second highest fraction inhibited in the dose matrix, 72 h); higher = more inhibition; extreme values may be limits of the assay
Tag: rule met if measured combination Emax is not below 0.5, rule not met if it is.

Would you say CN(CCO)CC[C@H](CSc1ccccc1)Nc1ccc(S(=O)(=O)NC(=O)c2ccc(N3CCC([C@@H](O)c4ccccc4-c4ccc(Cl)cc4)CC3)cc2)cc1S(=O)(=O)C(F)(F)F [AZD4320] + C[C@@H]1COCCN1C2=NC(=NC(=C2)C3(CC3)[S@](=N)(=O)C)C4=C5C=CNC5=NC=C4 [AZD6738] (first compound max 1 µM, 7x7, partner max 10 µM) shows combination Emax at minimum 0.5?
rule met

Continue with Cc1c2c(nn1C)CSCc1cc(n(C)n1)CSc1cc(c3ccccc3c1)OCCCc1c(C(=O)O)n(C)c3c-2c(Cl)ccc13 [AZD5991] + Cn1cnc2c(F)c(Nc3ccc(Br)cc3Cl)c(C(=O)NOCCO)cc21 [Selumetinib] (first compound max 1 µM, 7x7, partner max 3 µM)
rule not met

Same question for CN(CCO)CC[C@H](CSc1ccccc1)Nc1ccc(S(=O)(=O)NC(=O)c2ccc(N3CCC([C@@H](O)c4ccccc4-c4ccc(Cl)cc4)CC3)cc2)cc1S(=O)(=O)C(F)(F)F [AZD4320] + CCN(CCO)CCCOc1ccc2c(Nc3cc(CC(=O)Nc4cccc(F)c4)[nH]n3)ncnc2c1 [AZD2811] (first compound max 1 µM, 7x7, partner max 1 µM) please.
rule met

Try this compound too: CC(=O)c1c(C)c2cnc(Nc3ccc(N4CCNCC4)cn3)nc2n(C2CCCC2)c1=O [Palbociclib] + Cn1cnc2c(F)c(Nc3ccc(Br)cc3Cl)c(C(=O)NOCCO)cc21 [Selumetinib] (first compound max 10 µM, 7x7, partner max 10 µM)
rule not met

Same lookup for C[C@@H](c1ccc2nccn2c1)n1nnc2ncc(-c3cnn(C)c3)nc21 [Savolitinib] + Cc1c2c(nn1C)CSCc1cc(n(C)n1)CSc1cc(c3ccccc3c1)OCCCc1c(C(=O)O)n(C)c3c-2c(Cl)ccc13 [AZD5991] (first compound max 1 µM, 7x7, partner max 1 µM) , please.
rule not met

Next record, please: CN(CCO)CC[C@H](CSc1ccccc1)Nc1ccc(S(=O)(=O)NC(=O)c2ccc(N3CCC([C@@H](O)c4ccccc4-c4ccc(Cl)cc4)CC3)cc2)cc1S(=O)(=O)C(F)(F)F [AZD4320] + Cn1cnc2c(F)c(Nc3ccc(Br)cc3Cl)c(C(=O)NOCCO)cc21 [Selumetinib] (first compound max 1 µM, 7x7, partner max 3 µM)
rule met
